test system: Jurkat cells; assay: Inhibitory action for G2 checkpoint using Jurkat cells (cell cycle by FACS); format: cell-based, human; conditions: Homo sapiens, cells at M phase (colchicine 0.5 µM) reduced to 50%, 20 hours, Table 1, read-out: IC50 colchicine
Measured endpoint: IC50 (µg/mL)
Number only, in µg/mL; omit the unit.

Below, 3 compounds whose answers are already recorded.
| Compound | Output unit | IC50 |
| --- | --- | --- |
| C=C(C(=O)O)C(CCCCCCCC(=O)OC)C(=O)O (stereo not shown) | µg/mL | 10 |
| C=C(C(=O)O)C(CCCCCC(=O)OC)C(=O)OC (stereo not shown) | µg/mL | 175 |
| C=C(C(=O)O)C(CCCCCC(=O)OC)C(=O)O (stereo not shown) | µg/mL | 200 |

Now take the following compound into account.
What value of IC50 on Jurkat cells does C=C(C(=O)O)C(CCCC(=O)OCC)C(=O)O (stereo not shown) have? 200
